Reference source: PubChem BioAssay

experiment: reduction of polyQ htt aggregates in cells – imaging, exon1htt(103Q)mCFP cells, high-content imaging, primary screen (AID 483); details: exon1htt(103Q)mCFP cell line, aggregate imaging, at 2 µM; stronger effect = higher value;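 further: compound exposure lasted 3 days before fixation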
quantity kind: inhibition of aggregation (%)
Report only the number, with the unit % understood.

Item: O=C(O)c1cccc(NC(=O)C2C3C=CC(C3)C2C(=O)OCC(F)(F)C(F)F)c1 (stereo not drawn) | inhibition of aggregation: 28.9

For record COc1ccc(S(=O)(=O)NCC(=O)N(CC(=O)NCC2CCCO2)c2ccccc2C)cc1 (stereo not drawn) the listed inhibition of aggregation is -8.4

O=C(CS(=O)(=O)Cc1ccccc1)N1CCc2ccccc2C1 has a reported inhibition of aggregation of 13.8

Record Cc1ccc(OC(=O)CCC(=O)OCCCC(F)(F)C(F)(F)F)cc1 , field inhibition of aggregation: 4.9

So, N#Cc1cnn(Cc2ccc(Cl)cc2)c1N ? Its inhibition of aggregation was -3.8

Form field inhibition of aggregation, entry Cc1cc(C(=O)COC(=O)CCc2nc3ccccc3s2)c(C)n1C : 14.2

Reported inhibition of aggregation of CCCn1c(SCC(=O)NC(=O)NCc2ccco2)n[nH]c1=O : -7.6

Per the record, O=C(OCC#CCSc1nc2ccccc2o1)c1ccco1 has inhibition of aggregation of -4.7

Looking up O=C(COC(=O)c1cnccn1)Nc1ccc2c(c1)OCO2 , I see its inhibition of aggregation listed as -8

The value of inhibition of aggregation measured for the molecule Cc1cnc(C(=O)Nc2ccc(N3CCN(C(=O)OC(C)(C)C)CC3)cc2)cn1 turned out to be -7.1

Entry Cc1nn(Cc2ccccc2)c(C)c1NC(=O)c1cc(-c2ccco2)on1 ; inhibition of aggregation = -15.5

inhibition of aggregation measured on CCn1c(C(=O)OC)cc2c1ccn2-c1ccc(F)cc1 = 25

Field inhibition of aggregation (entry N#Cc1ccc(CSc2nnc(-c3cnccn3)o2)cc1 ) reads -20.4

inhibition of aggregation reported for this molecule COC(=O)c1ccc(C(=O)OC)c(NC(=O)Nc2ccc3c(c2)OCO3)c1 : 2.1

Entry under test: COc1ccccc1CC(=O)NCC1CCCO1 (stereo not drawn) . Its inhibition of aggregation was 8.9

Reported inhibition of aggregation for CCOC(=O)N1CCC(N2C(=O)c3ccccc3C2Nc2ccccc2C)CC1 (stereo not drawn) was -4

Noted for Cn1cnnc1Sc1nc2c(c(=O)n(C)c(=O)n2C)n1Cc1ccccc1Cl : its inhibition of aggregation reads -1.6

Entry under test: c1cnc(NCCNc2ncccn2)nc1 . Its inhibition of aggregation was 11.9

Notebook: COC(=O)CCc1c(C)c(C#N)c2nc3ccccc3n2c1N1CCCC1 , inhibition of aggregation read as 9.1

inhibition of aggregation reading for Cc1cccc(-n2nnnc2SCc2csc(-c3ccccc3)n2)c1 : -8.3

# inhibition of aggregation (molecule: COc1ccc(N2C(=O)C(Cl)=C(Nc3c(C)n(C)n(-c4ccccc4)c3=O)C2=O)cc1 ) is -20.7

# inhibition of aggregation (molecule: CCN(CC)S(=O)(=O)c1ccc(Cl)c(C(=O)OC)c1 ) is 0.1

inhibition of aggregation reported for this molecule COC(=O)c1cc(=O)n(Cc2ccc3c(c2)OCO3)c(=Nc2ccccc2)s1 : 8.9

----------
assay: reduction of polyQ htt aggregates in cells – imaging, exon1htt(103Q)mCFP cells, high-content imaging, primary screen (AID 483); conditions: exon1htt(103Q)mCFP cell line, aggregate imaging, at 2 µM; measured here: cell count, toxicity;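 further: compound exposure lasted 3 days before fixation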;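 on nuclei count: percent of the per-plate median nuclei count of sample wells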
Exercise: for every item that follows, state its recorded nuclei count.
A number alone suffices; assume %.

// recorded nuclei count for OCc1nc(CO)n(Cc2ccccc2)n1 : 112

Measured nuclei count of Oc1ccc(Nc2nc(-c3ccc(O)cc3)cs2)cc1 : 71.8

Recorded nuclei count (compound COc1cccc(NC(=O)C2CCN(c3ncccn3)CC2)c1 ): 94.4

Kindly note the recorded nuclei count for CC1CCc2c(sc3c2C2=NS(=O)(=O)CCN2C=N3)C1 (stereo not drawn) , which is 87.1

Record N#Cc1nc(COc2ccccc2)oc1NCCN1CCOCC1 , field nuclei count: 96.4

Given item O=C(c1ccc(Br)cc1)N1CCN(S(=O)(=O)c2ccccc2)CC1 , the value recorded as its nuclei count is 66.6

Sample O=C(CN1C(=O)COc2ccccc21)NCCN1CCc2ccccc2C1 ; nuclei count observed: 95

What the record says about CC(=O)c1c(C)[nH]c(C(=O)OCc2nnc(-c3ccccc3)o2)c1C : nuclei count is 122

Reported nuclei count of O=S1(=O)Nc2c(ccc3cccnc23)-c2ccccc21 : 50.8

Entry CC(C(=O)Nc1ccccc1-c1ccccc1)N1CCN(C(=O)c2ccco2)CC1 (stereo not drawn) — recorded nuclei count = 75

For reference, reported nuclei count for O=C(NCc1cccnc1)c1cccc(C(F)(F)F)c1 stands at 111

Recorded nuclei count (compound CCOC(=O)c1cc(-c2nnc(-c3ccc(Oc4ccccc4)cc3)o2)c(C)nc1C ): 102

Lookup result for COc1ccc(NC(=O)CSc2nc3c(c(=O)n2-c2ccc(F)cc2)SCC3)c(OC)c1 ; measured nuclei count: 109

compound Cc1ccc(-c2[nH]nc3c2C(c2ccc(OC(=O)N4CCOCC4)cc2)C(C#N)=C(N)O3)cc1 (stereo not drawn) , nuclei count observed: 97.7

Data point: O=C(OC1CCOC1=O)c1ccc2ccccc2n1 (stereo not drawn) ; nuclei count = 100

So for Cc1ccc(-n2nc(C(=O)N3CCN(C)CC3)c3c4ccccc4n(C)c3c2=O)cc1 , the logged nuclei count turned out to be 90.9

Nc1nc(Nc2ccc(Cl)cc2Cl)nc(C(F)(F)F)n1 has a reported nuclei count of 96.9

nuclei count reading for COc1ccc(-n2c(=O)cc(N3CCN(Cc4ccccc4)CC3)[nH]c2=O)cc1 : 119

response.value for Cc1cccc(N2CCN(C(=O)Cn3ccc4ccccc4c3=O)CC2)c1C (field: nuclei count) = 95.6

The reported nuclei count of the compound CCOC(=O)c1ccccc1NC1CC(=O)N(c2ccccc2C)C1=O (stereo not drawn) was 97.9

Given item Cc1c(Cl)cccc1NC(=O)CCN1CCCCC1 , the value recorded as its nuclei count is 112

# nuclei count (compound: CCC(=O)N1C(=O)CCN(C(C)=O)c2ccccc21 ) is 109

nuclei count recorded for this compound, Cc1ccc2c(c1)CCCN2C(=O)c1ccc2c(c1)OCO2 , is 99.3

----------
Please provide measured inhibition of aggregation for the entries that follow.
assay: reduction of polyQ htt aggregates in cells – imaging, exon1htt(103Q)mCFP cells, high-content imaging, primary screen (AID 483); conditions: exon1htt(103Q)mCFP cell line, aggregate imaging, at 2 µM; stronger effect = higher value;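 further: compound exposure lasted 3 days before fixation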
Active and inactive are the calls of the source.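 The calls were made as follows: active = visual image review flags a hit and inhibition of aggregation exceeds 20%; inconclusive = visual hit but inhibition at or below 20%; inactive = no hit on visual image review.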

So for O=C(c1ccc(Br)cc1)N1CCN(S(=O)(=O)c2ccccc2)CC1 , the logged inhibition of aggregation turned out to be 3.3% (inactive)

get_value(item= FC(F)(F)c1ccc(Sc2nnc(-c3cccs3)n2CC2CCCO2)nc1 (stereo unspecified) , readout=inhibition of aggregation) returns -3% (inactive)

Sure, the documented inhibition of aggregation for COCCN1C(=O)c2oc3c(C)cc(C)cc3c(=O)c2C1c1cccc(O)c1 (stereo unspecified) is 6.4% (inactive)

Per the record, CCn1nnc(NC(=O)c2cc3ccccc3o2)n1 has inhibition of aggregation of 7.1% (inactive)

Value of measured inhibition of aggregation for the entry CCOc1ccc(OCC)c(NC(=O)CN2CCN(C(=O)c3ccco3)CC2)c1 : -12.3% (inactive)

// inhibition of aggregation value for CCOc1ccccc1NS(=O)(=O)c1c(C)noc1C : 42.8% (inactive)

The compound identified as CC1N=C2c3ccccc3N=C(SCc3cc(=O)n4cc(Cl)ccc4n3)N2C1=O (stereo unspecified) registered its inhibition of aggregation at 18.8% (inactive)

Record summary for COc1cccc(NC(=O)CSc2nnc(-c3cccs3)n2C)c1 : reported inhibition of aggregation = 19.8% (inactive)

Record COc1ccc(C(=O)OCC(=O)NCc2ccco2)cc1OC . Reported inhibition of aggregation: -1.1% (inactive)

Form: compound = O=C(Nc1cc(C(F)(F)F)ccc1Cl)C1CCN(c2nnc(-n3cccc3)s2)CC1 ; inhibition of aggregation = 6.1% (inactive)

Noted for CCc1nnc(NC(=O)c2ccc(S(=O)(=O)NCC(C)C)cc2)s1 : its inhibition of aggregation reads -18.5% (inactive)

Record CC1=C/C(=C/N(C)c2ccccc2)C(=O)S1 , field inhibition of aggregation: -10.1% (inactive)

Reported inhibition of aggregation of CCN(C(=O)c1cc2cc3ccc(C)cc3nc2o1)c1ccc(OC)cc1 : 0.1% (inactive)

Lab note: measured inhibition of aggregation of COc1ccc(C(=O)NC(=O)CSc2nnc(-c3ccco3)n2-c2ccccc2)cc1 was -9.6% (inactive)

Sample CCSc1nnc(-c2ccc(OC)cc2)o1 ; inhibition of aggregation observed: 0% (inactive)

Field inhibition of aggregation (entry O=C(CSc1nnc(-c2ccco2)n1CC1CCCO1)NC1CCCC1 (stereo unspecified) ) reads 10.7% (inactive)

The compound listed as O=C(CSc1ncccn1)c1ccccc1Br shows inhibition of aggregation equal to 0.9% (inactive)

Cc1cc(=O)oc(C)c1C(=O)O yielded inhibition of aggregation of 20.6% (inactive)

Looking up CCOC(=O)c1sc2nc(NC(=O)COc3ccccc3)sc2c1C , I see its inhibition of aggregation listed as 9.3% (inactive)

Entry CCN(CCO)C1CC(=O)N(c2ccccc2C)C1=O (stereo unspecified) — recorded inhibition of aggregation = 12.4% (inactive)

Reported inhibition of aggregation ( Cc1c(C(=O)NCc2ccoc2)oc2ccc3c(c12)C(=O)CC(C)(C)O3 ) = -2.1% (inactive)

Per the records, this compound ( CSc1ccccc1NC(=O)c1noc2c1CCC2 ) has inhibition of aggregation equal to -0.9% (inactive)

inhibition of aggregation recorded for this compound, CC(C)(C)C(=O)OCC1OC(n2cnc(C(N)=O)n2)C(O)C1O (stereo unspecified) , is 7.9% (inactive)

Given item CCOc1ccccc1N(C(=O)c1ccco1)C(C(=O)NC1CCCC1)c1cccnc1 (stereo unspecified) , the value recorded as its inhibition of aggregation is 12.2% (inactive)

For record CCCc1cc(Nc2cccc(OC)c2)n2ncnc2n1 the listed inhibition of aggregation is -22.9% (inactive)

inhibition of aggregation recorded for this compound, COc1ccccc1C1/C(=C(/O)c2ccccc2)C(=O)C(=O)N1CC(C)C (stereo unspecified) , is -2% (inactive)

# inhibition of aggregation of Cc1ccc2[nH]c3c(c2c1)CN(C(=O)CN1CCN(c2cccc(C)c2C)CC1)CC3 = 22.7% (inactive)

// inhibition of aggregation value for COc1ccc2nc(NC(=O)CSc3nnc(-c4ccoc4C)n3C)sc2c1 : -2.4% (inactive)

// recorded inhibition of aggregation for CC(=O)c1ccc(N2CCN(C(=O)c3cc(C)on3)CC2)cc1 : 18.7% (inactive)

Record CC1=C(C(=O)OC(C)C)C(C2CC=CCC2)NC(=O)N1 (stereo unspecified) , field inhibition of aggregation: 17.1% (inactive)

The recorded inhibition of aggregation for entry CCOC(=O)c1cc2c(=O)n3ccccc3nc2n(CCCOC)c1=NC(=O)C(C)(C)C equals 39.3% (active)

Entry under test: O=C(Nc1ccccc1)N(CCN1CCOCC1)Cc1ccccc1F . Its inhibition of aggregation was -16.2% (inactive)

Memo: CCC(C)NC(=O)CCNS(=O)(=O)c1ccc(Br)cc1 (stereo unspecified) , reported inhibition of aggregation: 17.5% (inactive)

CCCCN(C)Cc1c(O)ccc2c(-c3ccccc3)cc(=O)oc12 has a reported inhibition of aggregation of 5% (inactive)

The compound listed as CCN(CC)C(=O)Oc1ccc(NC(C)=O)cc1 shows inhibition of aggregation equal to 1.1% (inactive)

Form field inhibition of aggregation, entry O=C(NCc1ccco1)C1CCN(S(=O)(=O)N2CCC3(CC2)OCCO3)CC1 : 28.1% (inactive)

In plain terms, Cc1onc(-c2ccccc2)c1C(=O)N1CCN(C(=O)c2ccco2)CC1 has a documented inhibition of aggregation of -0.2% (inactive)

So, Cn1c(=O)cc(SCC(=O)NCc2cccnc2)c2ccccc21 ? Its inhibition of aggregation was 3.4% (inactive)

Lookup result for O=c1c2nnn(Cc3ccc(Cl)cc3)c2ncn1Cc1ccc(F)cc1 ; measured inhibition of aggregation: -10.3% (inactive)

Per the records, this compound ( CC(=O)C1=C(O)C(=O)N(C2CCCCC2)C1c1ccccc1 (stereo unspecified) ) has inhibition of aggregation equal to -19.1% (inactive)

inhibition of aggregation reported for this compound CCN1CCN(CCNC(=O)c2cn(C(C)c3ccccc3F)nn2)CC1 (stereo unspecified) : -18.1% (inactive)

Reported inhibition of aggregation of OCc1nc(CO)n(Cc2ccccc2)n1 : -12.2% (inactive)

The compound listed as CCOC(=O)C1CCN(c2c(NC3CCCCCCC3)c(=O)c2=O)CC1 shows inhibition of aggregation equal to -6.4% (inactive)

Entry O=C(CCSc1ccccc1)Nc1ccc(S(=O)(=O)N2CCOCC2)cc1 — recorded inhibition of aggregation = 8.5% (inactive)

Per the records, this compound ( CC(=O)Nc1cccc(NC(=O)C2CCCN2C(=O)Nc2ccc(C)cc2)c1 (stereo unspecified) ) has inhibition of aggregation equal to 0.5% (inactive)

Briefly, inhibition of aggregation measured for COc1ccc(N(CC(=O)N2CCCCC2)S(=O)(=O)c2ccccc2)c(OC)c1 : -4.8% (inactive)
